test system: Mus musculus; test: Neurotoxicity in 32 mA current-induced seizure albino CF1 mouse model at 100 mg/kg, ip measured after 4 hrs; assay type: toxicity, organism-based; design: dose 100 mg/kg, route intraperitoneal; settings: in vivo

# SMILES_REPR, Activity
rows = [
    ("Cl.O=C1NC(=O)[C@@H](c2cccc(C(F)(F)F)c2)N2CCC[C@H]12", "Non-toxic"),
    ("O=C1NC(=O)[C@@H]2CCCN2[C@H]1c1ccccc1C(F)(F)F", "Non-toxic"),
    ("O=C1NC(=O)[C@@H]2CCCN2[C@H]1c1ccc(C(F)(F)F)cc1", "Non-toxic"),
    ("O=C1NC(=O)[C@@H]2CCCN2[C@H]1c1ccc(F)cc1", "Non-toxic"),
]
